Target: (recombinant) catalytic domain of human Bub1 (amino acids 704-1085) (Homo sapiens (Human), UniProt O43683)
Sequence (O43683 704-1085): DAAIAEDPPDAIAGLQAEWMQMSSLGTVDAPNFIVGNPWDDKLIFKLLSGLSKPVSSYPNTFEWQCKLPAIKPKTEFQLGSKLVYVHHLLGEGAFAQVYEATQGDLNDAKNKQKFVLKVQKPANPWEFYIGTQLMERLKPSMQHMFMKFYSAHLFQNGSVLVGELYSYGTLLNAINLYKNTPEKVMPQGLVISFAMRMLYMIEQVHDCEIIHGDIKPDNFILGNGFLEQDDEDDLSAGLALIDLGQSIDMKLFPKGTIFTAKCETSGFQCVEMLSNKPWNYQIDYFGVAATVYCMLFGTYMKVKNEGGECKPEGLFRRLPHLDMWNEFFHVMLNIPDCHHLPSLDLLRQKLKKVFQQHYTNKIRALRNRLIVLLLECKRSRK
Experiment: Bub1 kinase assay (TR-FRET)
Details: ATP 10 μM final, peptide substrate 1 μM final, 60 min at 22° C., read-out: Biological Assay: Bub1 kinase assay median IC50
measurementName: IC50 (nM)

// below: answered compounds
CCC(=O)Nc1cc(-c2[nH]c3c(c2Nc2ccccc2)C(=O)CCC3)ccn1    26.7
O=C(O)CCn1c2c(c(Nc3ccccc3)c1-c1ccncc1)C(=O)CCC2    474

[I] O=C(CN1CCCC1)Nc1cc(-c2[nH]c3c(c2Nc2ccccc2)C(=O)CCC3)ccn1
[II] CC(C)Nc1cnccc1-c1[nH]c2c(c1Nc1ccccc1)C(=O)CCC2
Please let me know which one, I or II , has a lower measured IC50 value. Write the label of whichever entry you select.
I
